assay: Growth inhibition of human Hs 578T cells; assay type: functional
observation-type: TGI (µM)
Give your result in µM as a bare value.

Worked examples follow.
substance-smiles	observation-type	quantity-unit	assay-result
CC(C)C[C@H](NC(=O)CCn1ccc2ccccc2c1=O)B(O)O	TGI	µM	48.7
CC(C)C[C@H](NC(=O)Cn1ccc2ccc(Br)cc2c1=O)B(O)O	TGI	µM	75.1

Could you now look at the following compound, please?
[in] Dear colleague, I am looking for the recorded TGI of the following compound: CC(C)C[C@H](NC(=O)CCn1ccc2ccc(Br)cc2c1=O)B(O)O
[out] 6.2

###

molecular target: Chymotrypsinogen A (Bos taurus); assay: Inhibition of bovine pancreatic alpha-chymotrypsin using Suc-Leu-Leu-Val-Tyr-AMC as substrate by fluorescence assay

substance-smiles	Ki
COc1cc2ccn(CC(=O)N[C@@H](CC(C)C)B(O)O)c(=O)c2cc1OC	Not Active
CC(C)C[C@H](NC(=O)Cn1ccc2ncccc2c1=O)B(O)O	Not Active
COc1cc2ccn(CCC(=O)N[C@@H](CC(C)C)B(O)O)c(=O)c2cc1OC	Not Active

###

Target: Proteasome component C5 (Homo sapiens)
Sequence (P20618 whole entry): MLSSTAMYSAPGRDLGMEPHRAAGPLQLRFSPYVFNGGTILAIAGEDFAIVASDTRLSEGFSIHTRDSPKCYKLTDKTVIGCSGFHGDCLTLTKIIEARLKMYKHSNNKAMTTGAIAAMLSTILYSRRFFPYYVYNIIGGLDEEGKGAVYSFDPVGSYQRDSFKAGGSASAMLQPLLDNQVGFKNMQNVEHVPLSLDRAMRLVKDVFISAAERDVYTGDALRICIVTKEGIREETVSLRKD
Experiment: Inhibition of PGPH-like activity of 20S proteasome in human erythrocytes using Z-Leu-Leu-Glu-AMC as substrate by fluorescence assay
observation-type: Ki

substance-smiles	test-system	observation-type	assay-result
CC(C)CCNC(=O)CCn1ccc2ncccc2c1=O	Proteasome component C5 (Homo sapiens)	Ki	Not Active
CC(C)CCNC(=O)Cn1ccc2ccc(Br)cc2c1=O	Proteasome component C5 (Homo sapiens)	Ki	Not Active
COc1cc2ccn(CC(=O)N[C@@H](CC(C)C)B(O)O)c(=O)c2cc1OC	Proteasome component C5 (Homo sapiens)	Ki	Not Active
CC(C)C[C@H](NC(=O)CCn1cc(Br)c2ncccc2c1=O)B(O)O	Proteasome component C5 (Homo sapiens)	Ki	Not Active

###

experiment: Growth inhibition of human HCC2998 cells; assay type: functional; conditions: HCC 2998
observation-type: LC50 (µM)
Give the quantity in µM, number only.

// below: answered compounds
substance-smiles	observation-type	assay-result
CC(C)C[C@H](NC(=O)CCn1ccc2ccc(Br)cc2c1=O)B(O)O	LC50	8.42
CC(C)C[C@H](NC(=O)Cn1ccc2ccc(Br)cc2c1=O)B(O)O	LC50	31.4
CC(C)C[C@H](NC(=O)CCn1ccc2ncccc2c1=O)B(O)O	LC50	90.2

Next up:
[in] Please give the measured LC50 for this compound: CC(C)C[C@H](NC(=O)CCn1ccc2ccccc2c1=O)B(O)O
[out] 66.4

###

system: U-251; assay: Growth inhibition of human U251 cells; type: functional; settings: read-out: LC50 (the source's name)
This listing pairs compounds with measured CC50.

As a guide, the following entries are already answered.
substance-smiles	assay-result
CC(C)C[C@H](NC(=O)CCn1ccc2ccc(Br)cc2c1=O)B(O)O	> 100 µM
CC(C)C[C@H](NC(=O)CCn1ccc2ccccc2c1=O)B(O)O	> 100 µM
CC(C)C[C@H](NC(=O)Cn1ccc2ccc(Br)cc2c1=O)B(O)O	> 100 µM

Moving on to the next compound.
[in] Endpoint output: CC50 of CC(C)C[C@H](NC(=O)CCn1ccc2ncccc2c1=O)B(O)O . Value?
[out] > 100 µM

###

test system: SNB-75; test: Growth inhibition of human SNB75 cells; assay type: functional
observation-type: LC50

substance-smiles	test-system	assay-result
CC(C)C[C@H](NC(=O)CCn1ccc2ccc(Br)cc2c1=O)B(O)O	SNB-75	> 100 µM
CC(C)C[C@H](NC(=O)CCn1ccc2ccccc2c1=O)B(O)O	SNB-75	93.4 µM
CC(C)C[C@H](NC(=O)Cn1ccc2ccc(Br)cc2c1=O)B(O)O	SNB-75	63.3 µM

[in] If you can, please state the reported LC50 value of CC(C)C[C@H](NC(=O)CCn1ccc2ncccc2c1=O)B(O)O .
[out] > 100 µM

###

assay: Growth inhibition of human Hs 578T cells; assay type: functional
observation-type: GI50 (nM)
# output: bare number, implied unit nM

Solved cases below.
compound	observation-type	assay-result
CC(C)C[C@H](NC(=O)CCn1ccc2ncccc2c1=O)B(O)O	GI50	15600
CC(C)C[C@H](NC(=O)CCn1ccc2ccc(Br)cc2c1=O)B(O)O	GI50	430
CC(C)C[C@H](NC(=O)[C@H](Cc1ccccc1)NC(=O)c1cnccn1)B(O)O [BORTEZOMIB]	GI50	1.02

[in] # input compound: CC(C)C[C@H](NC(=O)CCn1ccc2ccccc2c1=O)B(O)O ; wanted: its GI50
[out] 3630

[in] Param item: CC(C)C[C@H](NC(=O)Cn1ccc2ccc(Br)cc2c1=O)B(O)O
[out] 2940

###

molecular target: Proteasome Macropain subunit MB1 (Homo sapiens, UniProt P28074); experiment: Inhibition of chymotrypsin-like activity of 20S proteasome in human erythrocytes using Suc-Leu-Leu-Val-Tyr-AMC as substrate by fluorescence assay; conditions: read-out: Ki
Sequence (P28074 whole entry): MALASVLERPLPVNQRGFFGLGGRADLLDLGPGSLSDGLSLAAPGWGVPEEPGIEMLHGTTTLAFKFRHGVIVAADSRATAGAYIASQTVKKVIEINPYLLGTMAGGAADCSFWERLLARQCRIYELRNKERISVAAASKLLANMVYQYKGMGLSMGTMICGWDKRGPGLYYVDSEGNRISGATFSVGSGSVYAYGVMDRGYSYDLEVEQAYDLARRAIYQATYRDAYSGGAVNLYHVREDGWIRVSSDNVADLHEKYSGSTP
observation-type: pKi
Worth noting: pKi values are minus log10 of concentrations stated in mol/L.

substance-smiles	pKi
CC(C)CCNC(=O)Cn1ccc2ccc(Br)cc2c1=O	5.63

[in] // lookup pKi for CC(C)C[C@H](NC(=O)CCn1ccc2ccc(Br)cc2c1=O)B(O)O
[out] 7.22

[in] Same read-out for CC(C)C[C@H](NC(=O)CCn1ccc2ccccc2c1=O)B(O)O ?
[out] 7.29

[in] Please give the result for CC(C)C[C@H](NC(=O)CCn1ccc2ncccc2c1=O)B(O)O too.
[out] 7.24

[in] Now consider CC(C)C[C@H](NC(=O)Cn1ccc2ccc(Br)cc2c1=O)B(O)O and answer again.
[out] 7.28

[in] // next record CC(C)C[C@H](NC(=O)Cn1ccc2ccccc2c1=O)B(O)O
[out] 6.31

[in] Quick one: CC(C)CCNC(=O)CCn1ccc2ncccc2c1=O
[out] 5.34

[in] Now this one: COc1cc2ccn(CCC(=O)N[C@@H](CC(C)C)B(O)O)c(=O)c2cc1OC
[out] 7.07

[in] Same for CC(C)CCNC(=O)CCn1cc(Br)c2ncccc2c1=O
[out] 7.10

###

tested on: SW-620; assay: Growth inhibition of human SW620 cells; type: functional
# key: entry, value: TGI
Provide the reading as a plain figure in µM.

substance-smiles	assay-result
CC(C)C[C@H](NC(=O)CCn1ccc2ccccc2c1=O)B(O)O	12

For the next question, use this compound.
[in] What value of measured TGI is listed for CC(C)C[C@H](NC(=O)Cn1ccc2ccc(Br)cc2c1=O)B(O)O ?
[out] 8.19

###

system: RPMI-8226; assay: Growth inhibition of human RPMI8226 cells; format: functional
TGI by entry:

substance-smiles	test-system	observation-type	assay-result
CC(C)C[C@H](NC(=O)Cn1ccc2ccc(Br)cc2c1=O)B(O)O	RPMI-8226	TGI	> 100 µM
CC(C)C[C@H](NC(=O)CCn1ccc2ncccc2c1=O)B(O)O	RPMI-8226	TGI	> 100 µM

[in] Entry CC(C)C[C@H](NC(=O)CCn1ccc2ccccc2c1=O)B(O)O : reported TGI = ?
[out] 7.07 µM

[in] Now give it for CC(C)C[C@H](NC(=O)CCn1ccc2ccc(Br)cc2c1=O)B(O)O too.
[out] > 100 µM

###

tested on: HL-60(TB); test: Growth inhibition of human HL-60(TB) cells; format: functional
observation-type: GI50 (nM)
Report the value in nM with no unit label.

substance-smiles	GI50 / nM
CC(C)C[C@H](NC(=O)CCn1ccc2ncccc2c1=O)B(O)O	6880
CC(C)C[C@H](NC(=O)Cn1ccc2ccc(Br)cc2c1=O)B(O)O	380
CC(C)C[C@H](NC(=O)CCn1ccc2ccccc2c1=O)B(O)O	2690

Moving on to the next compound.
[in] Find the recorded GI50 belonging to CC(C)C[C@H](NC(=O)[C@H](Cc1ccccc1)NC(=O)c1cnccn1)B(O)O and report it.
[out] 1.9

###

test: Growth inhibition of human HCT15 cells; format: functional; conditions: HCT-15
This section presents compounds with their documented GI50 values.
Numeric only. Scale: µM

Some solved entries appear below for comparison.
substance-smiles	GI50, µM
CC(C)C[C@H](NC(=O)CCn1ccc2ccccc2c1=O)B(O)O	9.57
CC(C)C[C@H](NC(=O)CCn1ccc2ccc(Br)cc2c1=O)B(O)O	1.61
CC(C)C[C@H](NC(=O)Cn1ccc2ccc(Br)cc2c1=O)B(O)O	3.04

[in] GET /values?readout=GI50&item= CC(C)C[C@H](NC(=O)[C@H](Cc1ccccc1)NC(=O)c1cnccn1)B(O)O
[out] 0.00151

[in] Then what about the compound CC(C)C[C@H](NC(=O)CCn1ccc2ncccc2c1=O)B(O)O ?
[out] 21.3
